system: U118; test: Bliss synergy score (Combenefit); higher = more synergy; extreme values may be limits of the assay; conditions: exposure time: 72 h
Assignment: determine reported Bliss synergy score for the given compounds.
I'd appreciate a reply containing only the number, no unit.

Asked: What value of measured Bliss synergy score is listed for C[C@@H](Oc1cc(-c2cnn(C3CCNCC3)c2)cnc1N)c1c(Cl)ccc(F)c1Cl [Crizotinib] + Cc1cc([C@@H](C)Nc2ccccc2C(=O)O)c2nc(N3CCOCC3)cc(=O)n2c1 [AZD6482] ?
Given back: 0.491

Asked: What value of measured Bliss synergy score is listed for CC(=O)O[C@@]12CO[C@@H]1C[C@H](O)[C@@]1(C)C(=O)[C@H](O)C3=C(C)[C@@H](OC(=O)[C@H](O)[C@@H](NC(=O)OC(C)(C)C)c4ccccc4)C[C@@](O)([C@@H](OC(=O)c4ccccc4)[C@H]21)C3(C)C [Docetaxel] + CCCCCCCCCCCC1=C(O)C(=O)C=C(O)C1=O [Embelin] ?
Given back: 0.219

Asked: What value of measured Bliss synergy score is listed for C#Cc1cccc(Nc2ncnc3cc(OCCOC)c(OCCOC)cc23)c1 [Erlotinib] + N#CC(c1ccnc(NCCc2cccnc2)n1)c1nc2ccccc2s1 [AS601245] ?
Given back: 0

Asked: What value of measured Bliss synergy score is listed for CCC(=O)N1CCN(c2ccc(-n3c(=O)ccc4cnc5ccc(-c6cnc7ccccc7c6)cc5c43)cc2C(F)(F)F)CC1 [Torin1] + CCCCCCCCCCCC1=C(O)C(=O)C=C(O)C1=O [Embelin] ?
Given back: 1.08

Asked: What value of measured Bliss synergy score is listed for C#Cc1cccc(Nc2ncnc3cc(OCCOC)c(OCCOC)cc23)c1 [Erlotinib] + CCCCCCCCCCCC1=C(O)C(=O)C=C(O)C1=O [Embelin] ?
Given back: 0.526

---

tested on: U118; assay: Loewe synergy score (Combenefit); higher = more synergy; extreme values may be limits of the assay; settings: exposure time: 72 h
Assignment: determine reported Loewe synergy score for the given molecules.
I'd appreciate a reply containing only the number, no unit.

Asked: What value of measured Loewe synergy score is listed for CCCCCCCCCCCC1=C(O)C(=O)C=C(O)C1=O [Embelin] + N#CC(c1ccnc(NCCc2cccnc2)n1)c1nc2ccccc2s1 [AS601245] ?
Given back: 4.39

Asked: What value of measured Loewe synergy score is listed for C#Cc1cccc(Nc2ncnc3cc(OCCOC)c(OCCOC)cc23)c1 [Erlotinib] + CCCCCCCCCCCC1=C(O)C(=O)C=C(O)C1=O [Embelin] ?
Given back: 2.33

Asked: What value of measured Loewe synergy score is listed for C=CCc1cccc(/C=N/NC(=O)CN2CCN(Cc3ccccc3)CC2)c1O [PAC-1] + Cc1cc([C@@H](C)Nc2ccccc2C(=O)O)c2nc(N3CCOCC3)cc(=O)n2c1 [AZD6482] ?
Given back: 1.77

Asked: What value of measured Loewe synergy score is listed for C#Cc1cccc(Nc2ncnc3cc(OCCOC)c(OCCOC)cc23)c1 [Erlotinib] + N#CC(c1ccnc(NCCc2cccnc2)n1)c1nc2ccccc2s1 [AS601245] ?
Given back: 2.58

---

tested on: U118; experiment: Loewe synergy score (Combenefit); higher = more synergy; extreme values may be limits of the assay; conditions: exposure time: 72 h
Property Label: Loewe synergy score

Asked: What value of measured Loewe synergy score is listed for C#Cc1cccc(Nc2ncnc3cc(OCCOC)c(OCCOC)cc23)c1 [Erlotinib] + O=c1[nH]c2ccccc2n1C1CCN(Cc2ccc(-c3[nH]c4cc5ncnc5cc4nc3-c3ccccc3)cc2)CC1 [Akt inhibitor VIII] ?
Given back: 7.49

Asked: What value of measured Loewe synergy score is listed for Nc1ccn([C@@H]2O[C@H](CO)[C@@H](O)C2(F)F)c(=O)n1 [Gemcitabine] + CO[C@H]1C[C@@H]2CC[C@@H](C)[C@@](O)(O2)C(=O)C(=O)N2CCCC[C@H]2C(=O)O[C@H]([C@H](C)C[C@@H]2CC[C@@H](O)[C@H](OC)C2)CC(=O)[C@H](C)/C=C(\C)[C@@H](O)[C@@H](OC)C(=O)[C@H](C)C[C@H](C)/C=C/C=C/C=C/1C [Rapamycin] ?
Given back: 22

Asked: What value of measured Loewe synergy score is listed for C[C@@H](Oc1cc(-c2cnn(C3CCNCC3)c2)cnc1N)c1c(Cl)ccc(F)c1Cl [Crizotinib] + Cc1cc([C@@H](C)Nc2ccccc2C(=O)O)c2nc(N3CCOCC3)cc(=O)n2c1 [AZD6482] ?
Given back: 3.69

Asked: What value of measured Loewe synergy score is listed for Cc1cc([C@@H](C)Nc2ccccc2C(=O)O)c2nc(N3CCOCC3)cc(=O)n2c1 [AZD6482] + CCOc1nc(NC(=O)Cc2cc(OC)ccc2OC)cc(N)c1C#N ?
Given back: 2.68

Asked: What value of measured Loewe synergy score is listed for CCC(=O)N1CCN(c2ccc(-n3c(=O)ccc4cnc5ccc(-c6cnc7ccccc7c6)cc5c43)cc2C(F)(F)F)CC1 [Torin1] + N#CC(c1ccnc(NCCc2cccnc2)n1)c1nc2ccccc2s1 [AS601245] ?
Given back: 2.14

Asked: What value of measured Loewe synergy score is listed for C[C@@H](Oc1cc(-c2cnn(C3CCNCC3)c2)cnc1N)c1c(Cl)ccc(F)c1Cl [Crizotinib] + CCOc1nc(NC(=O)Cc2cc(OC)ccc2OC)cc(N)c1C#N [JNK inhibitor VIII] ?
Given back: 4.11

Asked: What value of measured Loewe synergy score is listed for CCC(=O)N1CCN(c2ccc(-n3c(=O)ccc4cnc5ccc(-c6cnc7ccccc7c6)cc5c43)cc2C(F)(F)F)CC1 [Torin1] + CCCCCCCCCCCC1=C(O)C(=O)C=C(O)C1=O [Embelin] ?
Given back: 1.87

Asked: What value of measured Loewe synergy score is listed for CC(=O)O[C@@]12CO[C@@H]1C[C@H](O)[C@@]1(C)C(=O)[C@H](O)C3=C(C)[C@@H](OC(=O)[C@H](O)[C@@H](NC(=O)OC(C)(C)C)c4ccccc4)C[C@@](O)([C@@H](OC(=O)c4ccccc4)[C@H]21)C3(C)C [Docetaxel] + O=c1[nH]c2ccccc2n1C1CCN(Cc2ccc(-c3[nH]c4cc5ncnc5cc4nc3-c3ccccc3)cc2)CC1 [Akt inhibitor VIII] ?
Given back: 3.76

---

tested on: SF539; assay: Loewe synergy score (Combenefit); higher = more synergy; extreme values may be limits of the assay; conditions: exposure time: 72 h
I'd appreciate it if you could label each record using Loewe synergy score and these ranges: low bracket: < 1; middle bracket: ≥ 1 and < 2; high bracket: ≥ 2

Asked: Category of CC(=O)O[C@@]12CO[C@@H]1C[C@H](O)[C@@]1(C)C(=O)[C@H](O)C3=C(C)[C@@H](OC(=O)[C@H](O)[C@@H](NC(=O)OC(C)(C)C)c4ccccc4)C[C@@](O)([C@@H](OC(=O)c4ccccc4)[C@H]21)C3(C)C [Docetaxel] + CCCCCCCCCCCC1=C(O)C(=O)C=C(O)C1=O [Embelin] , please.
Given back: high bracket

Asked: Category of Cc1cc([C@@H](C)Nc2ccccc2C(=O)O)c2nc(N3CCOCC3)cc(=O)n2c1 [AZD6482] + CCOc1nc(NC(=O)Cc2cc(OC)ccc2OC)cc(N)c1C#N [JNK inhibitor VIII] , please.
Given back: middle bracket

Asked: Category of CCC(=O)N1CCN(c2ccc(-n3c(=O)ccc4cnc5ccc(-c6cnc7ccccc7c6)cc5c43)cc2C(F)(F)F)CC1 [Torin1] + C#Cc1cccc(Nc2ncnc3cc(OCCOC)c(OCCOC)cc23)c1 [Erlotinib] , please.
Given back: high bracket

Asked: Category of C#Cc1cccc(Nc2ncnc3cc(OCCOC)c(OCCOC)cc23)c1 [Erlotinib] + O=c1[nH]c2ccccc2n1C1CCN(Cc2ccc(-c3[nH]c4cc5ncnc5cc4nc3-c3ccccc3)cc2)CC1 [Akt inhibitor VIII] , please.
Given back: high bracket

Asked: Category of CO[C@H]1C[C@@H]2CC[C@@H](C)[C@@](O)(O2)C(=O)C(=O)N2CCCC[C@H]2C(=O)O[C@H]([C@H](C)C[C@@H]2CC[C@@H](O)[C@H](OC)C2)CC(=O)[C@H](C)/C=C(\C)[C@@H](O)[C@@H](OC)C(=O)[C@H](C)C[C@H](C)/C=C/C=C/C=C/1C [Rapamycin] + CCOc1nc(NC(=O)Cc2cc(OC)ccc2OC)cc(N)c1C#N [JNK inhibitor VIII] , please.
Given back: low bracket

Asked: Category of O=c1[nH]c2ccccc2n1C1CCN(Cc2ccc(-c3[nH]c4cc5ncnc5cc4nc3-c3ccccc3)cc2)CC1 [Akt inhibitor VIII] + N#CC(c1ccnc(NCCc2cccnc2)n1)c1nc2ccccc2s1 [AS601245] , please.
Given back: low bracket

Asked: Category of CC(=O)O[C@@]12CO[C@@H]1C[C@H](O)[C@@]1(C)C(=O)[C@H](O)C3=C(C)[C@@H](OC(=O)[C@H](O)[C@@H](NC(=O)OC(C)(C)C)c4ccccc4)C[C@@](O)([C@@H](OC(=O)c4ccccc4)[C@H]21)C3(C)C [Docetaxel] + C#Cc1cccc(Nc2ncnc3cc(OCCOC)c(OCCOC)cc23)c1 [Erlotinib] , please.
Given back: middle bracket

Asked: Category of C[C@@H](Oc1cc(-c2cnn(C3CCNCC3)c2)cnc1N)c1c(Cl)ccc(F)c1Cl [Crizotinib] + Cc1cc([C@@H](C)Nc2ccccc2C(=O)O)c2nc(N3CCOCC3)cc(=O)n2c1 [AZD6482] , please.
Given back: high bracket

Asked: Category of CC(=O)O[C@@]12CO[C@@H]1C[C@H](O)[C@@]1(C)C(=O)[C@H](O)C3=C(C)[C@@H](OC(=O)[C@H](O)[C@@H](NC(=O)OC(C)(C)C)c4ccccc4)C[C@@](O)([C@@H](OC(=O)c4ccccc4)[C@H]21)C3(C)C [Docetaxel] + CCC(=O)N1CCN(c2ccc(-n3c(=O)ccc4cnc5ccc(-c6cnc7ccccc7c6)cc5c43)cc2C(F)(F)F)CC1 [Torin1] , please.
Given back: high bracket

Asked: Category of C#Cc1cccc(Nc2ncnc3cc(OCCOC)c(OCCOC)cc23)c1 [Erlotinib] + N#CC(c1ccnc(NCCc2cccnc2)n1)c1nc2ccccc2s1 [AS601245] , please.
Given back: low bracket

Asked: Category of C=CCc1cccc(/C=N/NC(=O)CN2CCN(Cc3ccccc3)CC2)c1O [PAC-1] + CCOc1nc(NC(=O)Cc2cc(OC)ccc2OC)cc(N)c1C#N [JNK inhibitor VIII] , please.
Given back: high bracket

Asked: Category of CC(=O)O[C@@]12CO[C@@H]1C[C@H](O)[C@@]1(C)C(=O)[C@H](O)C3=C(C)[C@@H](OC(=O)[C@H](O)[C@@H](NC(=O)OC(C)(C)C)c4ccccc4)C[C@@](O)([C@@H](OC(=O)c4ccccc4)[C@H]21)C3(C)C [Docetaxel] + N#CC(c1ccnc(NCCc2cccnc2)n1)c1nc2ccccc2s1 [AS601245] , please.
Given back: high bracket

Asked: Category of Nc1ccn([C@@H]2O[C@H](CO)[C@@H](O)C2(F)F)c(=O)n1 [Gemcitabine] + CCOc1nc(NC(=O)Cc2cc(OC)ccc2OC)cc(N)c1C#N [JNK inhibitor VIII] , please.
Given back: low bracket

Asked: Category of Nc1ccn([C@@H]2O[C@H](CO)[C@@H](O)C2(F)F)c(=O)n1 [Gemcitabine] + C[C@@H](Oc1cc(-c2cnn(C3CCNCC3)c2)cnc1N)c1c(Cl)ccc(F)c1Cl [Crizotinib] , please.
Given back: low bracket

Asked: Category of C[C@@H](Oc1cc(-c2cnn(C3CCNCC3)c2)cnc1N)c1c(Cl)ccc(F)c1Cl [Crizotinib] + CCOc1nc(NC(=O)Cc2cc(OC)ccc2OC)cc(N)c1C#N [JNK inhibitor VIII] , please.
Given back: high bracket

Asked: Category of C#Cc1cccc(Nc2ncnc3cc(OCCOC)c(OCCOC)cc23)c1 [Erlotinib] + CCCCCCCCCCCC1=C(O)C(=O)C=C(O)C1=O [Embelin] , please.
Given back: middle bracket
